Sourced from PubChem BioAssay (NCATS)

Test system: W2
assay: qHTS profiling for inhibitors of Plasmodium falciparum proliferation (AID 504749); further: nearly all actives have a fitted effect of over 60% in size
experimental-context: P. falciparum in erythrocytes, SYBR Green DNA, 72 h; series mostly up to 28.7 µM
Inconclusive results are not listed. Activity calls are given as the source filed them. The call rests on the fitted dose curve; in most records, active means well fitted inhibition curve with a large enough effect; inconclusive means small, poorly fitted or top-dose-only effect; inactive means flat fitted curve, though single readings scatter.
Please state which outcome applies, choosing from YES (active), NO (inactive)

Answer briefly: the call reported for Cc1ccccc1 in this assay. NO

Answer briefly: the call reported for CC1=C(/C=C/C(C)=C/C=C/C(C)=C/CO)C(C)(C)CCC1 in this assay. YES

Answer briefly: the call reported for CCC(=O)NCCC1CCc2ccc3c(c21)CCO3 (configuration not stated) in this assay. NO

Answer briefly: the call reported for CCOC(=O)C1=C(C)NC(C)=C(C(=O)OCC)C1c1ccccc1C=CC(=O)OC(C)(C)C in this assay. YES

Answer briefly: the call reported for O=C(O)c1cc(O)c2c(c1)[O][Bi][O]2 in this assay. NO

Answer briefly: the call reported for Cc1cc(C(=O)NNCc2ccccc2)no1 in this assay. NO

Answer briefly: the call reported for CCCCCCOc1ccc(C(=N)N(CCCC)CCCC)c2ccccc12 in this assay. YES

Answer briefly: the call reported for C[C@]12O[C@H](C[C@]1(O)CO)n1c3ccccc3c3c4c(c5c6ccccc6n2c5c31)CNC4=O in this assay. YES

Answer briefly: the call reported for Oc1cc(O)c2c(c1)OC(c1ccc(O)c(O)c1)C(O)C2 (configuration not stated) in this assay. NO

Answer briefly: the call reported for O=C(Nc1cccc(C(F)(F)F)c1)c1cc(Br)cc(Br)c1O in this assay. YES

Answer briefly: the call reported for O=C(O)CN(CCN(CC(=O)O)CC(=O)O)CC(=O)O in this assay. NO

Answer briefly: the call reported for CC[N+](C)(C)Cc1ccccc1Br in this assay. NO
